molecular target: Synaptic vesicle glycoprotein 2A (Rattus norvegicus, UniProt Q02563); assay: In vitro inhibitory activity against [3H](2S)-2-[4-(3-azidophenyl)-2-oxopyrrolidin-1-yl]butanamide binding to levetiracetam binding site
Sequence (Q02563 whole entry): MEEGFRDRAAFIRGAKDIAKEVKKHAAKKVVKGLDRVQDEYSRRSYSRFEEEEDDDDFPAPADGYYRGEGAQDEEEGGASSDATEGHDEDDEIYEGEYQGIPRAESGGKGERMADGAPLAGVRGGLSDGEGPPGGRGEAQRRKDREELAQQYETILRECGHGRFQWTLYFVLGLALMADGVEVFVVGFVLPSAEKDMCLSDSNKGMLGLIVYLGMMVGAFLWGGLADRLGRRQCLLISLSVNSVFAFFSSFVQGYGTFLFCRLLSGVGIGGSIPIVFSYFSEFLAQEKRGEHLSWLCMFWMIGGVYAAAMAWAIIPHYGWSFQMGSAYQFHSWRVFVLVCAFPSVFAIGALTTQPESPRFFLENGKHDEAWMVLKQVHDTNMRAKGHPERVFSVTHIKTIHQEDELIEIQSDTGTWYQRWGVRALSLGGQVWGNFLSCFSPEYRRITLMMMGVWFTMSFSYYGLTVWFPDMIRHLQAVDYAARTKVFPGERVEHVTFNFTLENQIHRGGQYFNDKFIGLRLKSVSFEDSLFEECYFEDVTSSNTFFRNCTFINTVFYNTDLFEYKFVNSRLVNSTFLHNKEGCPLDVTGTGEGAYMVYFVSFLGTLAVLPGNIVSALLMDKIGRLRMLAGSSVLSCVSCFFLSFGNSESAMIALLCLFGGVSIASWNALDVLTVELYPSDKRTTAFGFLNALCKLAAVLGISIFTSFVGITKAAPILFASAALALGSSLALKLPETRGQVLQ
ASSAY READOUT: pIC50
Answer as the number alone; pIC50 is minus log10 of concentration in mol/L.

Problem: Give me measured pIC50, please, for this molecule: CC(C)C(C(N)=O)N1CCCC1=O (configuration not stated)
Solution: 4.70

Problem: Give me measured pIC50, please, for this molecule: "CCCCN(C(=O)CC)[C@@H](CC)C(N)=O"
Solution: 5.00

Problem: Give me measured pIC50, please, for this molecule: NC(=O)CN1CCCC1=O [2-(2-oxopyrrolidin-1-yl)acetamide]
Solution: 4.40

Problem: Give me measured pIC50, please, for this molecule: "CCC[C@H](C(N)=O)N1CCCC1=O"
Solution: 3.00

Problem: Give me measured pIC50, please, for this molecule: "CC[C@@H](C(N)=O)N1C[C@H](C)CC1=O"
Solution: 5.90

Problem: Give me measured pIC50, please, for this molecule: "CCC[C@H]1CC(=O)N([C@@H](CC)C(N)=O)C1"
Solution: 6.60

Problem: Give me measured pIC50, please, for this molecule: CCC1CC(=O)N([C@@H](CC)C(N)=O)C1 (some centres not stated)
Solution: 5.90

Problem: Give me measured pIC50, please, for this molecule: CCCCCN(C(=O)CC)C(CC)C(N)=O (configuration not stated)
Solution: 5.70

Problem: Give me measured pIC50, please, for this molecule: "CC[C@@H](C(=O)NC)N1CCCC1=O"
Solution: 4.90

Problem: Give me measured pIC50, please, for this molecule: CCCCC1CC(=O)N(C(CC)C(N)=O)C1 (configuration not stated)
Solution: 6.40

Problem: Give me measured pIC50, please, for this molecule: "C[C@@H](C(N)=O)N1CCCC1=O"
Solution: 5.50

Problem: Give me measured pIC50, please, for this molecule: CCCC1(C)CC(=O)N([C@@H](CC)C(N)=O)C1 (some centres not stated)
Solution: 6.40

Problem: Give me measured pIC50, please, for this molecule: "CC[C@@H](C(N)=O)N(C)C(C)=O"
Solution: 4.80

Problem: Give me measured pIC50, please, for this molecule: CC[C@@H](C(N)=O)N1C(=O)CCC1C (some centres not stated)
Solution: 5.60

Problem: Give me measured pIC50, please, for this molecule: CCC[C@@H]1CC(=O)N([C@@H](CC)C(N)=O)C1 [UCB-34714]
Solution: 7.00

Problem: Give me measured pIC50, please, for this molecule: CCCCCC1CC(=O)N(C(CC)C(N)=O)C1 (configuration not stated)
Solution: 5.90

Problem: Give me measured pIC50, please, for this molecule: CCC(C(N)=O)N1CC(Cc2ccccc2)CC1=O (configuration not stated)
Solution: 5.60

Problem: Give me measured pIC50, please, for this molecule: "CC[C@@H](C(=N)N)N1CCCC1=O"
Solution: 4.90

Problem: Give me measured pIC50, please, for this molecule: CCCCCCCCN(C(=O)Cc1ccc(Cl)cc1)C(CC)C(N)=O (configuration not stated)
Solution: 5.70

Problem: Give me measured pIC50, please, for this molecule: "CC[C@@H](C(N)=O)N1C[C@H](CN=[N+]=[N-])CC1=O"
Solution: 7.10

Problem: Give me measured pIC50, please, for this molecule: "CC[C@@H](C(N)=O)N1C[C@H](CI)CC1=O"
Solution: 6.80
